The measurements presented in this section are drawn from paper PMC7736868.

Target: human D4R (Homo sapiens)
Sequence (P21917 1-419): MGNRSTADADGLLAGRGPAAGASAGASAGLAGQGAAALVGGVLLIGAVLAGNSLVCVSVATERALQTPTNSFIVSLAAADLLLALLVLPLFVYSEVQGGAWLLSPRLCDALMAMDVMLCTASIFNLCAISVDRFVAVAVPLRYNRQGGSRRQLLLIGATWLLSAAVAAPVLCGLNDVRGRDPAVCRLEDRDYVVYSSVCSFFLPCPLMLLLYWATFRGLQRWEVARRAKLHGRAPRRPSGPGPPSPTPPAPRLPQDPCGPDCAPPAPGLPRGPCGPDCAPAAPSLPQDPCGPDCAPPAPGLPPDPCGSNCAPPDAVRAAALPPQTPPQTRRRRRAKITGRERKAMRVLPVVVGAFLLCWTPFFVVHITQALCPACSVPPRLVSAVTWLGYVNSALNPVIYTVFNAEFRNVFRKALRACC
Test: Radioligand competition, [3H]spiperone, CHO cell membranes
PROPERTY_NAME: pKi
Numbers only, as −log10 of the molar value.

Completed entries (count: 5):
Task item: Using the record for CN(C)c1cccc2c(S(=O)(=O)NCCCNC(=O)c3ccc(-n4cc(CCCCN5CCN(c6cccc(Cl)c6Cl)CC5)nn4)cc3)cccc12 [8b] , report its pKi.
Reply: 6.89

Task item: Could you do the same for COc1ccccc1N1CCN(CCCCc2cn(-c3ccc(CNS(=O)(=O)c4cccc5c(N(C)C)cccc45)cc3)nn2)CC1 [4c] , please?
Reply: 7.49

Task item: Could you do the same for CCCN(CCCCc1cn(-c2ccc(CNC(=O)c3ccc(-c4c5ccc(=NCC(F)(F)F)cc-5oc5cc(NCC(F)(F)F)ccc45)c(C(=O)O)c3)cc2)nn1)C1Cc2ccccc2C1 [10a] , please?
Reply: 7.25

Task item: Could you do the same for COc1ccccc1N1CCN(CCCCc2cn(-c3ccc(C#N)cc3)nn2)CC1 [2c] , please?
Reply: 6.85

Task item: Could you do the same for CCCN(CCCCc1cn(-c2ccc(C#N)cc2)nn1)C1Cc2ccccc2C1 [2a] , please?
Reply: 7.48

Need pKi for each of these compounds.
1. CCCN(CCCCc1cn(-c2ccc(C(=O)NCCCNS(=O)(=O)c3cccc4c(N(C)C)cccc34)cc2)nn1)C1Cc2ccccc2C1 [8a]
2. CCCN(CCCCc1cn(-c2ccc(CNS(=O)(=O)c3cccc4c(N(C)C)cccc34)cc2)nn1)C1Cc2ccccc2C1 [4a]

Reply:
1. 8.00
2. 7.57

----------
molecular target: D2SR (Homo sapiens); test: β-arrestin-2 recruitment (Pathhunter, DiscoverX), HEK293 cells, GRK2 coexpressed; assay type: cell-based; parameters: expressed in transfected cells; details: read-out: Emax β-arrestin-2 recruitment at D2SR, reference agonist quinpirole
Sequence (P14416 1-414 isoform P14416-2): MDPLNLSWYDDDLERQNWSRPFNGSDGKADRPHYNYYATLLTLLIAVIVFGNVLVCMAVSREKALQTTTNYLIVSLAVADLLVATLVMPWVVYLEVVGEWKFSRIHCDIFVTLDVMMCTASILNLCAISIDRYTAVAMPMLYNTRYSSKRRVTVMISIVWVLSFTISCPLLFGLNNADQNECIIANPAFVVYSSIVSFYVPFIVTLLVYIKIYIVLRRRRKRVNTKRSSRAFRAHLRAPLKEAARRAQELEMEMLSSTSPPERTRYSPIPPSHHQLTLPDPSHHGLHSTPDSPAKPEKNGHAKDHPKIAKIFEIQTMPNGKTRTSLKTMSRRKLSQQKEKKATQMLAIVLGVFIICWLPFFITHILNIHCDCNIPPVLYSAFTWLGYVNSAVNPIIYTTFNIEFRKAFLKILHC
Can you tell me Emax for the items I'm about to list?
Numbers only, in %.

Completed entries (count: 3):
Task item: Return Emax measured with D2SR (Homo sapiens) given this compound: CCCN(CCCCc1cn(-c2ccc(C(=O)NCCCNC(=O)Cc3ccc4c(c3)C(C)(C)C3=C5C=C6C7=[N+](CCC6OC5CCN34)c3ccc(S(=O)(=O)[O-])cc3C7(C)C)cc2)nn1)C1Cc2ccccc2C1 (stereo not shown) [10b]
Reply: 79

Task item: Could you do the same for CCCN(CCCCc1cn(-c2ccc(C(=O)NCCCNC(=O)c3ccc(-c4c5ccc(=N)c(S(=O)(=O)O)c-5oc5c(S(=O)(=O)O)c(N)ccc45)c(C(=O)O)c3)cc2)nn1)C1Cc2ccccc2C1 [10c] , please?
Reply: 93

Task item: Could you do the same for CCCN(CCCCc1cn(-c2ccc(CNC(=O)c3ccc(-c4c5ccc(=NCC(F)(F)F)cc-5oc5cc(NCC(F)(F)F)ccc45)c(C(=O)O)c3)cc2)nn1)C1Cc2ccccc2C1 [10a] , please?
Reply: 89

Further cases:
Task item: Return Emax measured with D2SR (Homo sapiens) given this compound: `CCCN(CCCCc1cn(-c2ccc(C(=O)NCCCNS(=O)(=O)c3cccc4c(N(C)C)cccc34)cc2)nn1)C1Cc2ccccc2C1`
Reply: 98
